Hi there, I'd appreciate the recorded normalized growth for every entry that follows.
experiment: chemical genetic growth profiling, strain panel (AID 1159580);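 note: tested at 20 µM; growth read once vehicle control cultures reached saturation at 30 °C; 1 = growth at the plate median or of vehicle wells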; settings: S. cerevisiae deletion strains, growth OD, locus YMR058W, strain fet3, stronger effect = lower value
The campaign covered roughly 5,500 compounds. About 2,000 (36%) were called active. Roughly 18% stayed inconclusive and do not appear here. The list shows a part of the results.
One number for each entry.

[Q] What value of normalized growth has been reported for the following molecule? CCCCC(CC)CN=C(N)NC(N)=NCCCCCCN=C(N)NC(N)=NCC(CC)CCCC (stereo unspecified)
[A] 0.0606

[Q] Suppose we examine the molecule C#C[C@]1(O)CCC2C3CCc4cc(OC)ccc4C3CC[C@@]21C (stereo partly specified) ; what normalized growth value has been reported?
[A] 0.935

[Q] Item under review: C[C@]12CCC3c4ccc(OS(=O)(=O)O)cc4CCC3C1CCC2=O (stereo partly specified) . Reported normalized growth?
[A] 1.01

[Q] What does the data say about its normalized growth? Entry: CCn1cc(C(=O)O)c(=O)c2cc3c(cc21)OCO3
[A] 0.982

[Q] Quick one: normalized growth of O=C(NC(=O)c1c(F)cccc1F)Nc1cc(Cl)c(OC(F)(F)C(F)C(F)(F)F)cc1Cl (stereo unspecified) ?
[A] 0.994

Field: next molecule
[Q] Reported normalized growth, molecule CCn1cc(C(=O)O)c(=O)c2ccc(C)nc21 : ____
[A] 0.943

====

test: chemical genetic growth profiling, strain panel (AID 1159580); conditions: S. cerevisiae deletion strains, growth OD, locus YOL006C, strain TOP1, stronger effect = lower value
In all, about 5,500 compounds went through this assay and about 2,000 (36%) were called active. Roughly 18% stayed inconclusive and do not appear here. This is one part of the list.
# if measured normalized growth < 0.8: MET  # else: NOT MET

[Q] Input COC(=O)c1ccc([N+](=O)[O-])cc1Cl ; condition: normalized growth strictly below 0.8. Does it hold?
[A] MET

[Q] Hello, I'm reviewing records and need to know if normalized growth of CCOc1ccc2c(c1)C(C)=CC(C)(C)N2 is below 0.8. Could you check?
[A] NOT MET

====

test: chemical genetic growth profiling, strain panel (AID 1159580); conditions: S. cerevisiae deletion strains, growth OD, locus YLR113W, strain HOG1, stronger effect = lower value
Out of some 5,500 compounds screened, about 2,000 (36%) were called active. Inconclusive results (about 18%) are left out. The list shows a part of the results.
Observation Type: normalized growth

Known normalized growth results, listed for orientation:
[Q] May I ask what normalized growth has been recorded for CC/C=C\C/C=C\C/C=C\C/C=C\C/C=C\CCCC(=O)OCC ?
[A] 0.902 (inactive)

[Q] Requested read-out: normalized growth. Entry: CCOC(=O)CCCCCCCCCCCCC1C=CCC1 (configuration not stated)
[A] 1.01 (inactive)

[Q] Need normalized growth of O=C(NCc1ccco1)c1csc(C2COc3ccccc3O2)n1 (configuration not stated) , thanks.
[A] 0.811 (active)

For each of the compounds below, note its normalized growth.
1. COCCOc1ccccc1NC(=S)SCCSC(=S)Nc1ccccc1OCCOC
2. O=C(O)CCC(=O)c1ccc(-c2ccccc2)cc1
3. COc1ccc(CN(CCN(C)C)c2ncccn2)cc1
4. CC1(C)C2CC(=O)O[C@@]3(C)C4=CC(=O)O[C@@H](c5ccoc5)[C@]4(C)CCC3[C@@]2(C)C=C[C@H]1O (some centres not stated)
5. COc1cc(/C=C/C(=O)O)cc(OC)c1OC
6. O=C(O)CCCCCCCCCCCCC1C=CCC1 (configuration not stated)
7. O=C(O)CCCO

[A]
1. 0.931 (inactive)
2. 0.865 (inactive)
3. 1 (inactive)
4. 0.969 (inactive)
5. 1.03 (inactive)
6. 0.995 (inactive)
7. 1.02 (inactive)

Report normalized growth for every entry below.
1. NCc1ccc(S(N)(=O)=O)cc1
2. CCCN(CCC)C(=O)C(CCC(=O)O)NC(=O)c1ccccc1 (configuration not stated)

[A]
1: 1.01 (inactive); 2: 0.96 (inactive)

====

assay: chemical genetic growth profiling, strain panel (AID 1159580);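 note: tested at 20 µM; growth read once vehicle control cultures reached saturation at 30 °C; 1 = growth at the plate median or of vehicle wells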; conditions: S. cerevisiae deletion strains, growth OD, locus YBR229C, strain ROT2
Hit rate of the full screen: of about 5,500 compounds, about 2,000 (36%) were called active. Another 18% or so got no clear call; they are omitted. Rule as the data show it: active = normalized growth mostly below about 0.91 (no sharp cut-off); inconclusive = no clear call, values can overlap the other calls; inactive = mostly above about 0.92. Some of the results follow.
Your response should consist of one outcome taken from active, inactive

[Q] GET /call?item= C[C@](N)(Cc1ccc(O)c(O)c1)C(=O)O returns the recorded outcome of this test.
[A] inactive

Next, consider the following compound.
[Q] Dear colleague, could you share the recorded outcome for CC1(C)CC2C1CCC1(C)OC2(C)CCC1O (centres undefined) when you have a moment?
[A] inactive

====

assay: chemical genetic growth profiling, strain panel (AID 1159580);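 note: tested at 20 µM; growth read once vehicle control cultures reached saturation at 30 °C; 1 = growth at the plate median or of vehicle wells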; conditions: S. cerevisiae deletion strains, growth OD, locus YEL061C, strain CIN8
In all, about 5,500 compounds went through this assay and about 2,000 (36%) were called active. Not shown: some 18% with an inconclusive outcome. No stated cut-off is given here; in the data, active means normalized growth mostly below about 0.91 (no sharp cut-off); inconclusive means no clear call, values can overlap the other calls; inactive means mostly above about 0.92. This is one part of the list.
Form entry, call: pick from y for active, n for inactive

Consider the worked cases shown below.
[Q] Returns: the outcome recorded for CC(=O)OCC(=O)[C@@]12OC(C)(C)O[C@@H]1CC1C3C[C@H](F)C4=CC(=O)C=C[C@]4(C)[C@@]3(F)[C@@H](O)C[C@@]12C (stereo partly drawn) in this assay.
[A] n

[Q] Recorded call for C[C@@]12C(=O)OC(=O)[C@]1(C)C1CCC2O1 ?
[A] y

[Q] Given CCCSP(=O)(OCC)SCCC , state the outcome it received in this test.
[A] n

[Q] // param item: O=C(O)c1cc(=O)c2c(OCC(O)COc3cccc4oc(C(=O)O)cc(=O)c34)cccc2o1 ; yields the recorded call
[A] n

[Q] Given CCOP(=S)(OCC)Oc1ccc2c(C)c(Cl)c(=O)oc2c1 , state the outcome it received in this test.
[A] n

***
[Q] What did the test return for CC[C@]12CCCN3CCc4c(n(c5ccccc45)[C@](O)(C(=O)OC)C1)[C@@H]32 ?
[A] n

====

experiment: chemical genetic growth profiling, strain panel (AID 1159580);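 note: tested at 20 µM; growth read once vehicle control cultures reached saturation at 30 °C; 1 = growth at the plate median or of vehicle wells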; details: S. cerevisiae deletion strains, growth OD, locus YMR058W, strain fet3, stronger effect = lower value
In all, about 5,500 compounds went through this assay and about 2,000 (36%) were called active. Not shown: some 18% with an inconclusive outcome. The list shows a part of the results.
Assign normalized growth to each entry below.
Numbers only.

[Q] Would you mind telling me what normalized growth value was observed for CC(Cc1ccc(O)c(O)c1)(NN)C(=O)O (stereo not given) ?
[A] 0.987

[Q] Name the reported normalized growth value associated with the molecule CC1(C)CC2C1CCC1(C)OC2(C)CCC1O (stereo not given)
[A] 1.04

[Q] Item under review: CC[C@@H]1[C@@H](O)N2C3C[C@H]1C1C(O)[C@]4(C[C@@H]12)c1ccccc1N(C)[C@@H]34 (stereo not given in full) . Reported normalized growth?
[A] 1.01

[Q] Item C[C@H](COc1ccccc1)N[C@H](C)[C@H](O)c1ccc(O)cc1 has what recorded normalized growth?
[A] 0.988

[Q] Any idea what its normalized growth is? The molecule is CCOP(=S)(OCC)Oc1ccc2c(C)c(Cl)c(=O)oc2c1
[A] 0.957

Batch request: normalized growth per item, same order as input.
1. CC1(C)CC2C1CCC1(C)OC1CCC2(C)O (stereo not given)
2. C[C@@H]1C[C@@H]([C@H](O)CC2CC(=O)NC(=O)C2)C(=O)[C@@H](C)C1
3. CC(COc1ccccc1)N(CCCl)Cc1ccccc1 (stereo not given)
4. O=C(O)c1cc(=O)c(O)c2c(O)c(O)ccc2c1
5. CO[C@@H]1[C@@H](O[C@@H]2O[C@H](C)[C@@H](O[C@H]3C[C@@](C)(O)[C@H](O)[C@H](C)O3)[C@H](N(C)C)[C@H]2O)[C@@H](CC=O)C[C@@H](C)[C@@H](O[C@H]2CC[C@H](N(C)C)[C@@H](C)O2)/C=C/C=C/C[C@H](C)OC(=O)C[C@H]1O
6. CC12CCC3C(CC=C4CC(O)CCC43C)C1CCC2=O (stereo not given)
7. O=C(O)c1cc(O)c(O)c(O)c1

[A]
1. 1.05
2. 0.0596
3. 0.95
4. 0.99
5. 1.02
6. 0.885
7. 1.01

Batch lookup, normalized growth per entry.
1. C[C@](N)(Cc1ccc(O)cc1)C(=O)O
2. COc1ccc(-c2cc(C(F)F)nn2-c2ccc(S(N)(=O)=O)cc2)cc1F
3. CC(=O)O[C@H]1C[C@@H](OC(C)=O)C(C)(C)C2C[C@@H](OC(C)=O)[C@]3(C)C(CC[C@@]4(C)[C@H](c5ccoc5)C(=O)[C@H]5O[C@]543)[C@]21C (stereo not given in full)

[A]
1. 1
2. 0.995
3. 0.99
